Tested on: Staphylococcus aureus CIP52.1
TEST DETAILS: Minimum inhibitory concentration (MIC), NCCLS dilution antimicrobial susceptibility test
Format: cell-based
EXPERIMENTAL CONDITIONS: Table II, Example 1; mean of at least three tests; bacteriostatic effect; read-out: MIC RESULTS MEAN
Note to self: use 1 only for MIC readings below 3 µM; a reading exactly at 3 µM still gets 0.

# COMPOUND, TARGET OR TEST SYSTEM, CLASS NAME
measured = [
    ("CC1(C)CCC(C)(C)c2cc(-c3cc(-c4ccc(C(=O)O)cc4)ccc3-c3ccc(O)cc3)ccc21", "Staphylococcus aureus CIP52.1", 1),
    ("COc1ccc(C#Cc2cc(C(=O)O)cs2)cc1C12CC3CC(CC(C3)C1)C2", "Staphylococcus aureus CIP52.1", 1),
    ("CC1(C)CCC(C)(C)c2cc(-c3cc(-c4ccc(C(=O)O)cc4)ccc3-c3cccc(O)c3)ccc21", "Staphylococcus aureus CIP52.1", 0),
    ("CCCOc1ccc(-c2ccc3c(c2)C(C)(C)CCC3(C)C)cc1-c1ccc(C(=O)O)cc1", "Staphylococcus aureus CIP52.1", 0),
    ("CC(CO)COc1ccc(C#Cc2ccc(C(=O)O)cc2)cc1C12CC3CC(CC(C3)C1)C2 (stereo not shown)", "Staphylococcus aureus CIP52.1", 1),
    ("OCc1ccc2cc(-c3ccc(O)c(C45CC6CC(CC(C6)C4)C5)c3)ccc2c1", "Staphylococcus aureus CIP52.1", 0),
    ("CC1(C)CCSc2ccc(-c3cc(-c4ccc(C(=O)O)cc4)ccc3-c3ccccc3)cc21", "Staphylococcus aureus CIP52.1", 1),
]

====

Test system: Staphylococcus aureus CIP52.1
TEST DETAILS: Minimum inhibitory concentration (MIC), NCCLS dilution antimicrobial susceptibility test
Assay type: cell-based
EXPERIMENTAL CONDITIONS: Staphylococcus aureus, CIP52, Table II, Example 1; mean of at least three tests; bacteriostatic effect; read-out: MIC RESULTS MEAN
Recorded MIC values for a group of compounds are listed next.

# COMPOUND, TARGET OR TEST SYSTEM, UNIT TEXT, MIC
rows = [
    ("CC1(C)CCC(C)(C)c2cc3cc(-c4ccc(C(=O)O)c(O)c4)ccc3cc21 [Compound 28]", "Staphylococcus aureus CIP52.1", "µM", 3.33),
    ("CC1(C)CCC(C)(C)c2cc(Oc3ccc4cc(C(N)=O)ccc4c3)ccc21 [Compound 40]", "Staphylococcus aureus CIP52.1", "µM", 5),
    ("CC(C)(C)C1=CC(=CC#Cc2ccc(C(=O)O)cc2)C=C(C(C)(C)C)C1=O [Compound 5]", "Staphylococcus aureus CIP52.1", "µM", 1.25),
    ("CCCCCCCCCON=C(C(=O)Nc1ccc(C(=O)O)cc1)c1ccc2c(c1)C(C)(C)CCC2(C)C [Compound 17]", "Staphylococcus aureus CIP52.1", "µM", 2.5),
    ("O=C(O)c1ccc2cc(-c3cc(Br)c(O)c(C45CC6CC(CC(C6)C4)C5)c3)ccc2c1 [Compound 11]", "Staphylococcus aureus CIP52.1", "µM", 2.08),
    ("CC1(C)CCC(C)(C)c2cc3cc(-c4ccc(CO)c(O)c4)ccc3cc21 [Compound 20]", "Staphylococcus aureus CIP52.1", "µM", 2.5),
    ("CCCCCCCON=C(C(=O)Nc1ccc(C(=O)O)cc1)c1ccc2c(c1)C(C)(C)CCC2(C)C [Compound 39]", "Staphylococcus aureus CIP52.1", "µM", 5),
    ("Cc1cc(O)c(C23CC4CC(CC(C4)C2)C3)cc1-c1ccc2cc(C(=O)O)ccc2c1 [Compound 4]", "Staphylococcus aureus CIP52.1", "µM", 1.25),
]
